tested on: U2OS; assay: Multiplex assay against U2OS; assay type: toxicity, cell-based; details: human, 24 h, 1 µM, compound concentration 1 uM, replicate 1
Population Hoechst High Intensity Objects (%) for assorted molecules
Metric: Population Hoechst High Intensity Objects (%)

{"columns": ["Molecule", "Data Value"],
 "data": [
  ["CCCS(=O)(=O)Nc1ccc(F)c(C(=O)c2c[nH]c3ncc(Cl)cc23)c1F", 3],
  ["COc1cc2ncnc(Nc3ccc(F)c(Cl)c3)c2cc1NC(=O)/C=C/CN1CCCCC1 [DACOMITINIB ANHYDROUS]", 5],
  ["CCCn1c(=O)c2[nH]c(-c3cnn(Cc4cccc(C(F)(F)F)c4)c3)nc2n(CC)c1=O", 7],
  ["COC(=N)c1nc2ccc3ncnc(Nc4ccc(OC)cc4F)c3c2s1", 5],
  ["C=C1/C(=C\\C=C2/CCC[C@]3(C)[C@@H]([C@H](C)/C=C/[C@H](C)C(C)C)CC[C@@H]23)C[C@@H](O)C[C@@H]1O", 2],
  ["COc1ccc(-c2ccc3c(N4CCOCC4)nc(N4C[C@@H](C)O[C@@H](C)C4)nc3n2)cc1CO", 0],
  ["O=C(Nc1cccnn1)N1CCC(=Cc2cccc(Oc3ccc(C(F)(F)F)cn3)c2)CC1", 2],
  ["Cl.O=c1c2cccn2c2ccccc2n1CCCN1CCC(c2ccc(Cl)cc2)CC1", 4]
]}
